Where these numbers come from: the supplement of paper PMC11208160

assay: recombinant barcode read abundance after kanamycin selection (control-corrected) (log10(CPM+1)); higher = more efficient recombination; sequences stand for … in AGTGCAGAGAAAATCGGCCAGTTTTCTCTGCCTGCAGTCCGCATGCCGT…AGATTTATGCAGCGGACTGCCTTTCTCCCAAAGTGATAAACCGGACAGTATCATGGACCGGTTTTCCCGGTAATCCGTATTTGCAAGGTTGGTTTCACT; site = the 11-nt target;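 also: IS621 recombinase and bridge RNA in Escherichia coli cells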
Each entry gets Not satisfied if its recombinant barcode read abundance (log10) stays under 0.3, and Satisfied if its recombinant barcode read abundance (log10) is 0.3 or above.

Example entries and their recorded answers appear below.
Biopolymer sequence | Assigned label
TGCCCTCCTTGGGTTCTAACCTGTTGCTT (site TCCTCTCCTAA) | Not satisfied
ACCCAAACTTGGGTTCTAACCTGTTGCCT (site ACCCAAACTAG) | Satisfied
CACATGCCTTGGGTTCTAACCTGTTGCTG (site TTGTACACTGG) | Not satisfied
CTACAACCTTGGGTTCTAACCTGTTGCAG (site CTACAACCTCT) | Satisfied
TATTATACTTGGGTTCTAACCTGTTGCCT (site TATTATACTAT) | Satisfied

Please indicate if the recorded recombinant barcode read abundance (log10) for CGCTGGTCTTGGGTTCTAACCTGTTGCCT (site CGCTAGTCTAG) meets or exceeds 0.3.
Satisfied

Please indicate if the recorded recombinant barcode read abundance (log10) for TCTAAGTCTTGGGTTCTAACCTGTTGCCC (site TCTAAGTCTAG) meets or exceeds 0.3.
Not satisfied

Please indicate if the recorded recombinant barcode read abundance (log10) for TACGGCTCTTGGGTTCTAACCTGTTGCTT (site TACCGCTCTAA) meets or exceeds 0.3.
Not satisfied

Please indicate if the recorded recombinant barcode read abundance (log10) for TACCCTACTTGGGTTCTAACCTGTTGCTA (site TACCCTACTTA) meets or exceeds 0.3.
Satisfied

Please indicate if the recorded recombinant barcode read abundance (log10) for GAGATCCCTTGGGTTCTAACCTGTTGCTG (site GAGATCCCTTA) meets or exceeds 0.3.
Not satisfied

Please indicate if the recorded recombinant barcode read abundance (log10) for GCTTGGACTTGGGTTCTAACCTGTTGCAT (site GTTTGGACTCT) meets or exceeds 0.3.
Not satisfied

Please indicate if the recorded recombinant barcode read abundance (log10) for GCCGATACTTGGGTTCTAACCTGTTGCCT (site GCCGAAACTAG) meets or exceeds 0.3.
Not satisfied

Please indicate if the recorded recombinant barcode read abundance (log10) for TGACATTCTTGGGTTCTAACCTGTTGCTT (site GGACATTCTAA) meets or exceeds 0.3.
Not satisfied

Please indicate if the recorded recombinant barcode read abundance (log10) for TGCGTTCCTTGGGTTCTAACCTGTTGCGT (site TGCGTTCCTAC) meets or exceeds 0.3.
Satisfied

Please indicate if the recorded recombinant barcode read abundance (log10) for GGAAGACCTTGGGTTCTAACCTGTTGCTA (site GGAGGACCTAA) meets or exceeds 0.3.
Not satisfied

Please indicate if the recorded recombinant barcode read abundance (log10) for CAAAACTCTTGGGTTCTAACCTGTTGCTT (site CAAAACTCTAA) meets or exceeds 0.3.
Satisfied

Please indicate if the recorded recombinant barcode read abundance (log10) for TCCAAACCTTGGGTTCTAACCTGTTGCAG (site TCCAATCCTCT) meets or exceeds 0.3.
Not satisfied

Please indicate if the recorded recombinant barcode read abundance (log10) for TTAGCGTCTTGGGTTCTAACCTGTTGCCT (site TTAGCCTCTAG) meets or exceeds 0.3.
Not satisfied

Please indicate if the recorded recombinant barcode read abundance (log10) for GAATCCTCTTGGGTTCTAACCTGTTGCCT (site CAATCCTCTAG) meets or exceeds 0.3.
Satisfied

Please indicate if the recorded recombinant barcode read abundance (log10) for TAGTTAGCTTGGGTTCTAACCTGTTGCCT (site TAGTTAGCTGG) meets or exceeds 0.3.
Not satisfied

Please indicate if the recorded recombinant barcode read abundance (log10) for CCTGGCACTTGGGTTCTAACCTGTTGCGA (site CCTAGCACTTC) meets or exceeds 0.3.
Satisfied

----------
test: recombinant barcode read abundance after kanamycin selection (control-corrected) (log10(CPM+1)); higher = more efficient recombination; sequences stand for … in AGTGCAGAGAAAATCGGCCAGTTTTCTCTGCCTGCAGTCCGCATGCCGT…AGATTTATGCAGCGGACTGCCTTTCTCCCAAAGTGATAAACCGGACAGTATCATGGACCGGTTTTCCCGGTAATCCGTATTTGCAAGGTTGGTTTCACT; site = the 11-nt target
Experimental endpoint: recombinant barcode read abundance (log10)
Numbers only.

Answered cases to consult:
Biopolymer sequence | Measurement
TCTGTCTCTTGGGTTCTAACCTGTTGCCT (site TGTGTCTCTAC) | 0.0569
ATGGGCCCTTGGGTTCTAACCTGTTGCTC (site ATGGGCCCTAA) | 1.36
ACGCACACTTGGGTTCTAACCTGTTGCCT (site ACGCACACTAG) | 0.214
AGATTTCCTTGGGTTCTAACCTGTTGCCT (site AAATTTCCTAG) | 0.0272
CATGATTCTTGGGTTCTAACCTGTTGCCT (site CATTATTCTAG) | 0.0435

I would be grateful if you could provide recombinant barcode read abundance (log10) for each of the following entries.
1. AGGATAGCTTGGGTTCTAACCTGTTGCTG (site AGGATAGCTCA)
2. GTACGGCCTTGGGTTCTAACCTGTTGCCT (site GTACGGCCTAG)

1.45
0.319

I would be grateful if you could provide recombinant barcode read abundance (log10) for each of the following entries.
1. GACCGTCCTTGGGTTCTAACCTGTTGCAT (site GACCGTCCTAG)
2. TTCAAGCCTTGGGTTCTAACCTGTTGCGG (site TTCAAGCCTCC)
3. GTCAAGACTTGGGTTCTAACCTGTTGCCA (site GTCAAGACTCG)

[0.54, 1.15, 0.3]

----------
test: recombinant barcode read abundance after kanamycin selection (control-corrected) (log10(CPM+1)); higher = more efficient recombination; sequences stand for … in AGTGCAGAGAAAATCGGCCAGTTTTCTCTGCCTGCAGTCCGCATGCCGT…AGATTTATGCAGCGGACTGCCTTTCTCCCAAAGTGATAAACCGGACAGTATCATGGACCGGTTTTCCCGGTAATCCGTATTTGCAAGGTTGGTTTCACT; site = the 11-nt target
Each entry gets Criterion not met if its recombinant barcode read abundance (log10) stays under 0.1, and Criterion met if its recombinant barcode read abundance (log10) is 0.1 or above.

Example entries and their recorded answers appear below.
Biopolymer sequence | Assigned label
CCAGTTACTTGGGTTCTAACCTGTTGCCT (site CCAGTTACTAG) | Criterion met
GTAAGAACTTGGGTTCTAACCTGTTGCTT (site GTAAGGACTAA) | Criterion not met
AGGCGTCCTTGGGTTCTAACCTGTTGCCC (site AGGCGTCCTCG) | Criterion not met
TAGCCTACTTGGGTTCTAACCTGTTGCGT (site TAGCCTACTCC) | Criterion not met
ATCGGAACTTGGGTTCTAACCTGTTGCCT (site ATCGGAACTAG) | Criterion met

Please indicate if the recorded recombinant barcode read abundance (log10) for GGTCGGGCTTGGGTTCTAACCTGTTGCCT (site GGTCGAGCTAG) meets or exceeds 0.1.
Criterion met

Please indicate if the recorded recombinant barcode read abundance (log10) for TGTCTACCTTGGGTTCTAACCTGTTGCTA (site TGTCTCCCTAA) meets or exceeds 0.1.
Criterion met

Please indicate if the recorded recombinant barcode read abundance (log10) for ATGACCGCTTGGGTTCTAACCTGTTGCCA (site ATGACCGCTTG) meets or exceeds 0.1.
Criterion met

Please indicate if the recorded recombinant barcode read abundance (log10) for CTAAGGTCTTGGGTTCTAACCTGTTGCTT (site CTAAGGTCTAA) meets or exceeds 0.1.
Criterion met

----------
assay: recombinant barcode read abundance after kanamycin selection (control-corrected) (log10(CPM+1)); higher = more efficient recombination; sequences stand for … in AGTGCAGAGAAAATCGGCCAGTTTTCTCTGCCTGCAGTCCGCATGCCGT…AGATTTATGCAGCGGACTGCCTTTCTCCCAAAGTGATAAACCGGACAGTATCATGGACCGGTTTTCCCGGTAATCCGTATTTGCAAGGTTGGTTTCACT; site = the 11-nt target
just bin them by recombinant barcode read abundance (log10): lower level (below 0.08), middle level (0.08 to below 1), upper level (1 or more)

Example entries and their recorded answers appear below.
Biopolymer sequence | Assigned label
TGGTAGTCTTGGGTTCTAACCTGTTGCGT (site AAAGCTACTTA) | lower level
CTCTCATCTTGGGTTCTAACCTGTTGCTT (site CTCTCATCTAA) | lower level
TTGGAGGCTTGGGTTCTAACCTGTTGCCT (site AGCAGTACTTA) | lower level
ATAAGTGCTTGGGTTCTAACCTGTTGCCA (site ATAAGTGCTTG) | upper level
GTAAGAACTTGGGTTCTAACCTGTTGCTT (site GTAAGCACTAA) | lower level
TGCTGTGCTTGGGTTCTAACCTGTTGCCT (site TGCTGTCCTAG) | middle level

Each sequence maps to one class by recombinant barcode read abundance (log10). Which class for GGGGTTCCTTGGGTTCTAACCTGTTGCGT (site GGGGTTCCTAT) ?
upper level

Each sequence maps to one class by recombinant barcode read abundance (log10). Which class for CTCCATTCTTGGGTTCTAACCTGTTGCAT (site CTCGATTCTAT) ?
middle level

Each sequence maps to one class by recombinant barcode read abundance (log10). Which class for TCAGGATCTTGGGTTCTAACCTGTTGCCT (site TCAGCATCTAG) ?
lower level

Each sequence maps to one class by recombinant barcode read abundance (log10). Which class for ATCGGACCTTGGGTTCTAACCTGTTGCTG (site TATAATGCTAC) ?
middle level

Each sequence maps to one class by recombinant barcode read abundance (log10). Which class for AGGTTCCCTTGGGTTCTAACCTGTTGCTC (site AGGTTCCCTGA) ?
upper level

Each sequence maps to one class by recombinant barcode read abundance (log10). Which class for GGGTTCCCTTGGGTTCTAACCTGTTGCCT (site GGGTTCCCTAG) ?
upper level

Each sequence maps to one class by recombinant barcode read abundance (log10). Which class for CTACGCGCTTGGGTTCTAACCTGTTGCTT (site CTACGCGCTAA) ?
middle level

Each sequence maps to one class by recombinant barcode read abundance (log10). Which class for TCGAACTCTTGGGTTCTAACCTGTTGCTT (site TCGAACTCTAA) ?
middle level

Each sequence maps to one class by recombinant barcode read abundance (log10). Which class for GTCGTTGCTTGGGTTCTAACCTGTTGCCT (site TTCGTTGCTAG) ?
upper level

Each sequence maps to one class by recombinant barcode read abundance (log10). Which class for GTTTGACCTTGGGTTCTAACCTGTTGCGG (site TAGCTGACTGG) ?
lower level
